assay: Biodistribution: organ distribution of F-18 signal in mice; format: in vivo, male NMRI mice; conditions: kidney, 30 min post i.v. injection
Rule: Organ distribution of F-18 signal, kidney under 8 % ID/g gives not fulfilled, otherwise fulfilled.

Molecule	Category
O=C(NCC(=O)N1CCN(c2ccc(OCc3ccccc3)cc2)CC1)c1cccc(OCC[18F])c1	fulfilled
O=C(NCC(=O)N1CCN(c2ccc(OCc3ccccc3)cc2)CC1)c1ccc([18F])nc1 [Example 10e]	not fulfilled

* * *

Catalogue of compounds with associated Organ distribution of F-18 signal, skin
experiment: Biodistribution: organ distribution of F-18 signal in mice; format: in vivo, male NMRI mice; settings: skin, 30 min post i.v. injection

Compound	Unit of measurement	Organ distribution of F-18 signal, skin
O=C(NCC(=O)N1CCN(c2ccc(OCc3ccccc3)cn2)CC1)c1ccnc([18F])c1 [Example 14f]	% ID/g	1.17
O=C(NCC(=O)N1CCN(c2ccc(OCc3ccccc3)cc2)CC1)c1ccc([18F])nc1 [Example 10e]	% ID/g	1.39
O=C(NCC(=O)N1CCN(c2ccc(OCc3ccccc3)cc2)CC1)c1cccnc1[18F] [Example 12c]	% ID/g	1.51
O=C(NCC(=O)N1CCN(c2ccc(OCc3ccccc3)cc2)CC1)c1cccc(OCC[18F])c1 [Example 3g]	% ID/g	1.93
O=C(NCC(=O)N1CCN(c2ccc(OCc3ccccc3)cc2)CC1)c1ccnc([18F])c1 [Example 11c]	% ID/g	1.43

* * *

Catalogue of compounds with associated Organ distribution of F-18 signal, heart
assay: Biodistribution: organ distribution of F-18 signal in mice; format: in vivo, male NMRI mice; details: heart, 5 min post i.v. injection

Compound	Organ distribution of F-18 signal, heart / % ID/g
O=C(NCC(=O)N1CCN(c2ccc(OCc3ccccc3)cc2)CC1)c1ccc([18F])nc1 [Example 10e]	4.49
O=C(NCC(=O)N1CCN(c2ccc(OCc3ccccc3)cc2)CC1)c1ccnc([18F])c1 [Example 11c]	4.36
O=C(NCC(=O)N1CCN(c2ccc(OCc3ccccc3)cc2)CC1)c1cccnc1[18F] [Example 12c]	4.28
O=C(NCC(=O)N1CCN(c2ccc(OCc3ccccc3)cc2)CC1)c1cccc(OCC[18F])c1	8.25
O=C(NCC(=O)N1CCN(c2ccc(OCc3ccccc3)cn2)CC1)c1ccnc([18F])c1 [Example 14f]	3.81

* * *

Assay: Biodistribution: organ distribution of F-18 signal in mice
Assay type: in vivo, male NMRI mice
Settings: kidney, 5 min post i.v. injection
Experimental: Biodistribution and excretion studies were performed in male NMRI mice (body weight app. 30g; 3 animals per time point). The animals were kept under normal laboratory conditions at a temperature of 22±2° C. and a dark/light rhythm of 12 hours. Food and water were provided ad libitium. […] At 2, 5, 30, 60, 240 min post intravenous injection via the tail vein of ca. 150 kBq in 100 μl of the test compound, urine and feces were quantitatively collected. […]
Catalogue of molecules with associated Organ distribution of F-18 signal, kidney
Measure: Organ distribution of F-18 signal, kidney

Molecule	Reported value
O=C(NCC(=O)N1CCN(c2ccc(OCc3ccccc3)cc2)CC1)c1cccnc1[18F] [Example 12c]	7.76 % ID/g
O=C(NCC(=O)N1CCN(c2ccc(OCc3ccccc3)cc2)CC1)c1ccnc([18F])c1 [Example 11c]	8.07 % ID/g
O=C(NCC(=O)N1CCN(c2ccc(OCc3ccccc3)cn2)CC1)c1ccnc([18F])c1 [Example 14f]	8.59 % ID/g
O=C(NCC(=O)N1CCN(c2ccc(OCc3ccccc3)cc2)CC1)c1cccc(OCC[18F])c1	14.38 % ID/g
O=C(NCC(=O)N1CCN(c2ccc(OCc3ccccc3)cc2)CC1)c1ccc([18F])nc1 [Example 10e]	7.92 % ID/g
